Answer each item with its documented GI50.
- Test system: A549
- assay: NCI tumour cell line growth inhibition, 48 h
Activity calls are given as the source filed them. No stated cut-off is given here; in the data, active = GI50 up to about 1.1 µM and inactive = higher.

Give the measured GI50 of N=C(N)N/N=C/c1c(Cl)nc2n1CCS2 . 62.5 µM (inactive)

// lookup GI50 for CC(=O)OCC1OC(n2cnc(C(N)=S)c2N)C(OC(C)=O)C1OC(C)=O (stereo unspecified) > 100 µM (inactive)

Recorded GI50 of CC(=O)OC1C2CCC3CC2C2(SCCS2)C31 (stereo unspecified) , please. > 100 µM (inactive)

Given CC(C)=NN/C(=N\c1ccc(Cl)cc1)NS(=O)(=O)c1ccc(Oc2cccc(Cl)c2C#N)cc1 , state its recorded GI50. > 100 µM (inactive)

Requested field: GI50. Item: Clc1ccc2[nH]c(CC3CCCC3)nc2c1 21.7 µM (inactive)

Entry Cc1cc([N+](=O)[O-])ccc1Sc1c2ccccc2nc2cc(Cl)ccc12 : reported GI50 = ? 46.5 µM (inactive)

Would you mind telling me what GI50 value was observed for Cc1ccc(O)c(-c2cc(-c3cccc(Cl)c3)c(C#N)c(N)n2)c1 ? 18.9 µM (inactive)

Which value of GI50 has been reported for Cc1c(C(=O)/C=C/c2ccc(Cl)cc2)[n+]([O-])c2ccccc2[n+]1[O-] in the records? 12.4 µM (inactive)

Please look up its GI50: CCOC(=O)c1cc2c3c(c(C(C)=O)c(OC)c2[nH]1)N(C(=O)CC)CC3 14 µM (inactive)

// returns reported GI50 for input O=c1oc2ccccc2cc1-c1nc2ccc([N+](=O)[O-])cc2o1 > 100 µM (inactive)

I have this compound here, Brc1ccc2[nH]cc(-c3csc(-c4c[nH]c5ccccc45)n3)c2c1 , and I need its recorded GI50. 3.67 µM (inactive)

###

- Test system: EKVX
- assay: NCI tumour cell line growth inhibition, 48 h
The source made the active and inactive calls. Cut-off read from the data, not from the text of the source: active = GI50 up to about 1.1 µM and inactive = higher.
Record form. Attribute: GI50. Fill in for each entry.

Would you mind telling me what GI50 value was observed for O=C1c2ccccc2C(=O)C1C(c1ccc([N+](=O)[O-])cc1)C1C(=O)c2ccccc2C1=O ? > 100 µM (inactive)

What value of GI50 has been recorded for this entry: O=C(CCc1nnc(S)[nH]1)Nc1ccccc1Cl > 100 µM (inactive)

# get_value(readout='GI50', item= CC(=O)OC1C2CCC3CC2C2(SCCS2)C31 (stereo not given) ) > 100 µM (inactive)

For the compound O=C1Oc2ccccc2C(=O)/C1=C/N1C(=O)/C(=C/c2ccc3c(c2)OCO3)SC1=S , what GI50 is on record? 28.5 µM (inactive)

Any idea what its GI50 is? The compound is c1ccc2c3c([nH]c2c1)C1(CCCCC1)c1c([nH]c2ccccc12)C31CCCCC1 26.2 µM (inactive)

Form field: reported GI50 of Clc1ccccc1-c1nc(-c2ccncc2)no1 [PIFEXOLE] 16.1 µM (inactive)

Item under review: N=C(N)NS(=O)(=O)c1ccc(NC(=O)c2ccc3nc4ccccc4c(O)c3c2)cc1 . Reported GI50? > 100 µM (inactive)

For COc1ccc(N2NC(c3ccccc3)(c3ccccc3)C(C)C2=O)cc1 (stereo not given) , what is its reported GI50? 68.7 µM (inactive)

Look up GI50: CCCC(=O)N(C)/N=N/c1ccc(C(=O)OCC)cc1 15.2 µM (inactive)

What does the record list as GI50 for NNS(=O)(=O)c1ccc(/C=C2\NC(=O)NC2=O)cc1 ? > 100 µM (inactive)
